Test system: SUDHL5
Experiment: Anti-proliferative effect (CellTiter-Glo, 72 h), SUDHL5
Assay type: cell-based
Conditions: Homo sapiens, SU-DHL-5, 72 h, SUDHL5 cells, antiproliferation, 72 h incubation, median, read-out: Antiproli SUDHL5 [M] (median)
Description: Assessment of the Anti-Proliferative Effect of Compounds in Different Cell Lines The impact of compounds on the proliferation of different cell lines was assessed using the CellTiter-Glo® Luminescent Cell Viability reagent from Promega (G7573). […] After 72 h incubation, the treated plates were measured in the same way as the day 0 plate mentioned above.
VALUE TYPE: IC50

{"MOLECULE": "CN1CCCCn2c(C(=O)O)c(CCCOc3cccc4ccccc34)c3cccc(c32)-c2c(CC(F)(F)F)nn(C)c2C1 (single isomer, unassigned) [Example 223]", "IC50": "9.92e-06 M"}
{"MOLECULE": "CCc1c2c(nn1C)CN(C)CCCn1c(C(=O)O)c(CCCOc3cccc4ccccc34)c3cccc-2c31 (racemic) [Example 141]", "IC50": "1.39e-06 M"}
{"MOLECULE": "Cc1ccc2c(CCCOc3cccc4ccccc34)c(C(=O)O)n3c2c1-c1c(nn(C)c1C)COCCCC3 (racemic)", "IC50": "3.21e-06 M"}
{"MOLECULE": "Cc1nn(C)c2c1-c1cccc3c(CCCOc4cccc5ccccc45)c(C(=O)O)n(c13)CC=CCN2Cc1ccccc1 (racemic)", "IC50": "> 3.3e-05 M"}

Give the reported IC50 for this molecule. Cn1nc2c(c1OC(F)F)-c1cccc3c(CCCOc4cccc5ccccc45)c(C(=O)O)n(c13)CCCCOC2 (single isomer, unassigned) [Example 235]
1.22e-05 M

Give the reported IC50 for this molecule. Cc1nn(C)c2c1-c1cccc3c(CCCOc4ccc(F)c5ccccc45)c(C(=O)O)n(c13)CCCCOC2 (racemic) [Example 021]
2.4e-05 M

Give the reported IC50 for this molecule. Cc1nn(C)c2c1-c1cccc3c(CCCOc4cccc5ccccc45)c(C(=O)O)n(c13)CCCN(c1ccc(N3CCN(S(=O)(=O)N(C)C)CC3)cc1)C2 (single isomer, unassigned; enantiomer 1)
4.15e-06 M

Give the reported IC50 for this molecule. Cc1nn(C)c2c1-c1cccc3c(CCCOc4cccc5ccccc45)c(C(=O)O)n(c13)CCCCOCC2 (racemic)
6.09e-06 M

====

Some molecules, each annotated with its measured IC50.
tested on: OPM2; experiment: Anti-proliferative effect (CellTiter-Glo, 72 h), OPM2; format: cell-based; conditions: Homo sapiens, OPM-2, 72 h, OPM2 cells, median, read-out: IC50 antiproliferation assay OPM2 [M] (median)
API: value field is a number in M; no unit string.

{"MOLECULE": "COCCn1nc2c(c1C)-c1cccc3c(CCCOc4cccc5ccccc45)c(C(=O)O)n(c13)CCCN(C)C2 (racemic)", "VALUE TYPE": "IC50", "ASSAY VALUE": "3.07e-05"}
{"MOLECULE": "Cn1nc(COc2ccc(N3CCOCC3)cc2)c2c1COCCCCn1c(C(=O)O)c(CCCOc3cccc4ccccc34)c3cccc-2c31 (single isomer, unassigned; enantiomer 1)", "VALUE TYPE": "IC50", "ASSAY VALUE": "2.79e-06"}
{"MOLECULE": "CCc1c2c(nn1C)COCCCCn1c(C(=O)O)c(CCCOc3cccc4ccccc34)c3ccc(C)c-2c31 (single isomer, unassigned; enantiomer 1) [Example 154]", "VALUE TYPE": "IC50", "ASSAY VALUE": "2e-06"}
{"MOLECULE": "Cc1c2c(nn1CCN1CCOCC1)COCCCCn1c(C(=O)O)c(CCCOc3cccc4ccccc34)c3cccc-2c31 (racemic)", "VALUE TYPE": "IC50", "ASSAY VALUE": "1.11e-05"}
{"MOLECULE": "CC(C)c1c2c(nn1C)CN(C)CCCn1c(C(=O)O)c(CCCOc3cccc4ccccc34)c3cccc-2c31 (single isomer, unassigned; enantiomer 1) [Example 114]", "VALUE TYPE": "IC50", "ASSAY VALUE": "1.1e-05"}

Give the reported IC50 for this molecule. CN1CCCn2c(C(=O)O)c(CCCOc3cccc4ccccc34)c3cccc(c32)-c2c(COc3ccc(C4CCOCC4)cc3)nn(C)c2C1 (single isomer, unassigned)
2.01e-05

Give the reported IC50 for this molecule. COc1ccccc1-c1ncc(OCc2nn(C)c3c2-c2cccc4c(CCCOc5cccc6ccccc56)c(C(=O)O)n(c24)CCCN(C)C3)cn1 (single isomer, unassigned)
8.37e-06

Give the reported IC50 for this molecule. COC1(c2ccc(OCc3nn(C)c4c3-c3cccc5c(CCCOc6cccc7ccccc67)c(C(=O)O)n(c35)CCCCOC4)cc2)CCOCC1 (single isomer, unassigned)
1.18e-05

Give the reported IC50 for this molecule. Cc1c2c(nn1C)CN(C)CCCCn1c(C(=O)O)c(CCCOc3cccc4ccccc34)c3cccc-2c31 (racemic) [Example 067]
1.48e-05

Give the reported IC50 for this molecule. CN(C)S(=O)(=O)N1CCN(c2ccc(OCc3nn(C)c4c3-c3cccc5c(CCCOc6cccc7ccccc67)c(C(=O)O)n(c35)CCCCOC4)cc2)CC1 (racemic) [Example 1-18]
1.57e-06

====

Some molecules, each annotated with its measured IC50.
tested on: SUDHL5; assay: Anti-proliferative effect (CellTiter-Glo, 72 h), SUDHL5; format: cell-based; details: Homo sapiens, SU-DHL-5, 72 h, SUDHL5 cells, antiproliferation, 72 h incubation, median, read-out: Antiproli SUDHL5 [M] (median)

Recorded IC50, per entry:
{"MOLECULE": "CN(C)S(=O)(=O)N1CCN(c2ccc(OCc3nn(C)c4c3-c3cccc5c(CCCOc6cccc7ccccc67)c(C(=O)O)n(c35)CCCCOC4)cc2)CC1 (racemic)", "IC50": "9.33e-07 M"}
{"MOLECULE": "COc1c2c(nn1C)COCCCCn1c(C(=O)O)c(CCCOc3cccc4ccccc34)c3cccc-2c31 (racemic)", "IC50": "5.28e-06 M"}

Now examine the next entry.
Give the reported IC50 for this molecule. Cc1nn(C)c2c1-c1cccc3c(CCCOc4cccc5ccccc45)c(C(=O)O)n(c13)CCCCCN(C)C2
5.65e-06 M

====

Some compounds, each annotated with its measured IC50.
system: OPM2; assay: Anti-proliferative effect (CellTiter-Glo, 72 h), OPM2; type: cell-based; conditions: Homo sapiens, OPM-2, 72 h, OPM2 cells, median, read-out: IC50 antiproliferation assay OPM2 [M] (median)
API: value field is a number in M; no unit string.

Recorded IC50, per entry:
{"COMPOUND": "CCN(CC)S(=O)(=O)N1CCN(c2ccc(OCc3nn(C)c4c3-c3cccc5c(CCCOc6cccc7ccccc67)c(C(=O)O)n(c35)CCCCOC4)cc2)CC1 (racemic)", "RESULT UNIT": "M", "ASSAY VALUE": "2.11e-06"}
{"COMPOUND": "Cc1c2c(nn1C)COCCCn1c(C(=O)O)c(CCCOc3cccc4ccccc34)c3cccc-2c31 (racemic)", "RESULT UNIT": "M", "ASSAY VALUE": "1.36e-05"}
{"COMPOUND": "COc1cc2cc(c1)-c1cccc3c(CCCOc4cccc5c4CCCC5)c(C(=O)O)n(c13)CCCCCO2 (racemic)", "RESULT UNIT": "M", "ASSAY VALUE": "1.79e-05"}

Give the reported IC50 for this compound. CN(C)S(=O)(=O)N1CCN(c2ccc(OCc3nn(C)c4c3-c3cccc5c(CCCOc6cccc7ccccc67)c(C(=O)O)n(c35)CC=CCOC4)cc2)CC1 (racemic)
4.37e-06

====

target: UniProt:Q07820; assay: Protein-protein interaction assay MCL-1/Noxa BH3 peptide (MCL-1 assay), TR-FRET; assay type: binding; settings: MBP-MCL-1 / Noxa BH3-derived peptide, median
Sequence (Q07820 whole entry): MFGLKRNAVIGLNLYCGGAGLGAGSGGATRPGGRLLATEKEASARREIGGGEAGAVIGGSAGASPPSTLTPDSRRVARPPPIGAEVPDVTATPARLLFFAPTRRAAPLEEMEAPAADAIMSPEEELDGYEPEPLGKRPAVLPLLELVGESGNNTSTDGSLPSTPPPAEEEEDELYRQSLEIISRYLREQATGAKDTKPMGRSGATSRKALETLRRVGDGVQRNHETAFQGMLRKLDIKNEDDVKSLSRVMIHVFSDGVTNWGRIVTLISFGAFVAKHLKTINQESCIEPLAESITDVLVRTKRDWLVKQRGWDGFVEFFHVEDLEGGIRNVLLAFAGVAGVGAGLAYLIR
Some compounds, each annotated with its measured IC50.
API: value field is a number in nM; no unit string.

Recorded IC50, per entry:
{"COMPOUND": "Cc1nn(C)c2c1-c1cccc3c(CCCOc4cccc5cc(F)ccc45)c(C(=O)O)n(c13)CCCOC2 (single isomer, unassigned; enantiomer 1) [Example 047]", "SYSTEM TESTED": "UniProt:Q07820", "RESULT UNIT": "nM", "ASSAY VALUE": 2.86}
{"COMPOUND": "Cn1nc(CN2CCCCC2)c2c1COCCCCn1c(C(=O)O)c(CCCOc3cccc4ccccc34)c3cccc-2c31 (racemic) [Example 332]", "SYSTEM TESTED": "UniProt:Q07820", "RESULT UNIT": "nM", "ASSAY VALUE": 203}
{"COMPOUND": "Cc1nn(CC(F)(F)F)c2c1-c1cccc3c(CCCOc4cccc5c4CCCC5)c(C(=O)O)n(c13)CCCCOC2 (single isomer, unassigned; enantiomer 1) [Example 162]", "SYSTEM TESTED": "UniProt:Q07820", "RESULT UNIT": "nM", "ASSAY VALUE": 7.61}
{"COMPOUND": "Cc1nn(C)c2c1-c1cccc3c(CCCOc4cccc5ccccc45)c(C(=O)O)n(c13)CCCN(C)C2 (single isomer, unassigned; enantiomer 1) [Example 1-31]", "SYSTEM TESTED": "UniProt:Q07820", "RESULT UNIT": "nM", "ASSAY VALUE": 4.62}
{"COMPOUND": "Cc1c2c(nn1C)COCCCCn1c(C(=O)O)c(CCCOc3cccc4cc(Cl)ccc34)c3cccc-2c31 (racemic) [Example 295]", "SYSTEM TESTED": "UniProt:Q07820", "RESULT UNIT": "nM", "ASSAY VALUE": 5.28}

Give the reported IC50 for this compound. Cn1nc(COc2ccc(C3=CCOCC3)cc2)c2c1COCCCCn1c(C(=O)O)c(CCCOc3cccc4ccccc34)c3cccc-2c31 (single isomer, unassigned) [Example 1-63]
8.64
